# ASSAY TARGET: T1, TNFR1 (Homo sapiens, UniProt P19438)
# T1 chain: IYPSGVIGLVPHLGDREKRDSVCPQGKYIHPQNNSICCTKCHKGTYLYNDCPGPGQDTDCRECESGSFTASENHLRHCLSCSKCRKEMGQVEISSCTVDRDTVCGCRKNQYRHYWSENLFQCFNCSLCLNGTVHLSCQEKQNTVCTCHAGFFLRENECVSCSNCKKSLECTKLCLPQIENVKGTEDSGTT
# PROTOCOL NOTES: yeast display SC50
VALUE TYPE: apparent Kd (screen) (nM)

Previously resolved entries follow.
### Prompt Query: apparent Kd (screen); subject: A9G (designed binder) SMEEEVEKGAKEYEKKKKEAIEKHLEKLKAKDKEAAERFLKELEEAAKEYAKDEAKTMSEEEAKRRAKKYKEKVLLSELSEEEQKEIKEAEEKLVRTILKYVEEAAK
### Response 1.05

### Prompt Query: apparent Kd (screen); subject: A35L (designed binder) SMEEEVEKAAKEYEKKKKEAIEKHLEKLKAKDKELAERFLKELEEAAKEYAKDEAKTMSEEEAKRRAKKYKEKVLLSELSEEEQKEIKEAEEKLVRTILKYVEEAAK
### Response 0.446

### Prompt Query: apparent Kd (screen); subject: A106T (designed binder) SMEEEVEKAAKEYEKKKKEAIEKHLEKLKAKDKEAAERFLKELEEAAKEYAKDEAKTMSEEEAKRRAKKYKEKVLLSELSEEEQKEIKEAEEKLVRTILKYVEEATK
### Response 1.54

I: K31V (designed binder) SMEEEVEKAAKEYEKKKKEAIEKHLEKLKAVDKEAAERFLKELEEAAKEYAKDEAKTMSEEEAKRRAKKYKEKVLLSELSEEEQKEIKEAEEKLVRTILKYVEEAAK
II: V95E (designed binder) SMEEEVEKAAKEYEKKKKEAIEKHLEKLKAKDKEAAERFLKELEEAAKEYAKDEAKTMSEEEAKRRAKKYKEKVLLSELSEEEQKEIKEAEEKLERTILKYVEEAAK
### Prompt Given the listed items, does I or II have the lesser reported apparent Kd (screen)? Provide the label of your selected option as the answer.
### Response I

1: K18E (designed binder) SMEEEVEKAAKEYEKKKEEAIEKHLEKLKAKDKEAAERFLKELEEAAKEYAKDEAKTMSEEEAKRRAKKYKEKVLLSELSEEEQKEIKEAEEKLVRTILKYVEEAAK
2: E91Q (designed binder) SMEEEVEKAAKEYEKKKKEAIEKHLEKLKAKDKEAAERFLKELEEAAKEYAKDEAKTMSEEEAKRRAKKYKEKVLLSELSEEEQKEIKEAQEKLVRTILKYVEEAAK
### Prompt Given the listed items, does 1 or 2 have the lesser reported apparent Kd (screen)? Provide the label of your selected option as the answer.
### Response 1
